assayedTarget: UniProtKB P0C6E9
Sequence (P0C6E9 25-781): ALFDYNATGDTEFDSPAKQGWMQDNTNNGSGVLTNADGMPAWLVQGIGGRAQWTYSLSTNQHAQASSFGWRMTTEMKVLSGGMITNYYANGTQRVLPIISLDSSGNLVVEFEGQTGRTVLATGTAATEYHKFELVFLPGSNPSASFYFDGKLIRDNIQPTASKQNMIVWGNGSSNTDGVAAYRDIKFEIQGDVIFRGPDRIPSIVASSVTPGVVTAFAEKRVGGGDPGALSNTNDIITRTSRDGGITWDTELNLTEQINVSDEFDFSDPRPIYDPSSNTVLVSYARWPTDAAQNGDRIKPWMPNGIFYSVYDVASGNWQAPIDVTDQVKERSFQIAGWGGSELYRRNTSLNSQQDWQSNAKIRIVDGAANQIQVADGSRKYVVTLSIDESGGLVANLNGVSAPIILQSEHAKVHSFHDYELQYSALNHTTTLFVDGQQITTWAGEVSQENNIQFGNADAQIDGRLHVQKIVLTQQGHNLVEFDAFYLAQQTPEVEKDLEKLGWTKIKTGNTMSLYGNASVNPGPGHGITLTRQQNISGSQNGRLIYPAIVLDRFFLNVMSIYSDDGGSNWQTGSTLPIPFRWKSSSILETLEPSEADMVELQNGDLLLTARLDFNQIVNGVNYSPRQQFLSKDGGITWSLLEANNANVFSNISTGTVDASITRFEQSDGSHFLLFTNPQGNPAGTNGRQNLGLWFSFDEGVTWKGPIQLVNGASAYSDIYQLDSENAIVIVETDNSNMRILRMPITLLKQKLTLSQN
experimentSummary: Inhibition activity against neuraminidase (pre-incubation, p-nitrophenyl-α-N-acetyl neuraminic acid hydrolysis, absorbance 405 nm)
appliedConditions: irreversible inhibitor; pre-incubation 0, 10 or 30 min with 0-0.5 mM, pH 5.0; calculated from inhibition curve (FIG. 3); read-out: inhibition constant (Ki)
endpointLabel: Ki
# include the unit after the value

Ki lookup needed for CC(=O)NC1C(O)CC(Oc2ccc(NS(=O)(=O)c3cccc4c(N(C)C)cccc34)cc2C(F)F)(C(=O)O)OC1C(O)C(O)CO (stereo not shown) [compound 6] , thanks.
1900 µM
